Where these numbers come from: paper PMC5540273

Kindly state %Inh for each of the entries shown.
# System: MARK2
# settings: concentration: 1 μM, replicates: in singlicate; n = 1;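 further: KINOMEscan kinase panel screen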
# value in %; strip the unit string

Request: %Inh, test system MARK2, entry Cc1ccc(C(=O)Nc2ccc(Nc3ccnc4cc(-c5nccs5)ccc34)cc2O)cc1.Cl
0

# repeat for CCc1ccc(-c2ccc3c(c2)-c2c(cnn2C)S(=O)(=O)N3C)cc1
0

Next: CNC(=O)c1ccccc1Nc1nc(Nc2ccc(N3CCOCC3)cc2)ncc1Cl.Cl
92.6

Note, next up: COc1cccc(NC(=O)NC2CCN(c3ccnc(Nc4cc(OC)c(OC)c(OC)c4)n3)C2)c1 (stereo not drawn)
0

Same thing, different compound: O=C(NC1CCN(c2ccnc(Nc3ccc(F)cc3)n2)C1)c1cc2ccccc2s1 (stereo not drawn)
0

Queued: COc1cc(Nc2ncc3c(C)nc(-c4cc5ccccc5[nH]4)n3n2)cc(OC)c1OC
11

---

# Test system: CDK11
# Construct: gene CDK19
# settings: concentration: 1 μM, replicates: in singlicate; n = 1
Assignment: determine reported %Inh for the given compounds.
The answer is to be given in %; state only the numeric part.

Looking for the measured %Inh of O=C(Nc1n[nH]c2nc(-c3ccc(O)cc3)ccc12)C1CC1 , can you help?
0

Ok, now Nc1ncc(-c2ccc3nccc(-c4ccncc4)c3c2)cc1S(=O)(=O)N1CCOCC1
40

And then COc1ccc(Nc2nccc(N3CCC(NC(=O)Nc4cccc(OC)c4)C3)n2)cc1 (centres unmarked) , what is it?
56

Try NCCCC(NC(=O)c1cc(Br)c(-c2ccnc3[nH]ccc23)s1)c1ccccc1.O=C(O)C(F)(F)F.O=C(O)C(F)(F)F (centres unmarked) next.
45

And for CN1CCN(Cc2cccc(-c3ccc4c(Nc5ccc(Oc6ccccc6)cc5)ccnc4c3)c2)CC1 ?
0

Could you do the same for Cn1cc(-c2ccc3c(c2)CCN3C(=O)Cc2cccc(F)c2)c2c(N)ncnc21 , please?
96.7

Next compound up: Cl.c1ccc(-c2ccc3c(Nc4ccc5[nH]ncc5c4)ccnc3c2)nc1
3

Then CN(C)S(=O)(=O)c1cc(-c2ccc3nccc(-c4cccc(S(N)(=O)=O)c4)c3c2)cnc1N ?
54

---

# System: NEK2
# settings: concentration: 1 μM, replicates: in singlicate; n = 1
Give MET when the value for %Inh is at least 4%. Give NOT MET when it is less.

State whether the measured %Inh reaches 4%, counting equality as reaching it, for CC(=O)N1CCN(c2ccc(Nc3nccc(-c4sc(C(C)C)nc4-c4cccc(NS(=O)(=O)c5cccc(Cl)c5)c4)n3)cn2)CC1
MET

Let us now turn to Cc1ccc(C)c(NC(=O)NC2CCN(c3ccnc(Nc4ccc(F)cc4)n3)C2)c1 (stereo not shown)
NOT MET

Proceed to COc1cccc(NC(=O)NC2CCN(c3ccnc(Nc4cc(OC)c(OC)c(OC)c4)n3)C2)c1 (stereo not shown)
MET

Cool, now COc1cc(Nc2nccc(-c3c(-c4cccc(NC(=O)c5c(F)cccc5F)c4)nn4ncccc34)n2)cc(OC)c1OC
MET

Also O=C(NC1CCN(c2ccnc(Nc3ccc(F)cc3)n2)C1)c1cc2ccccc2s1 (stereo not shown) , if possible.
MET

Let us now turn to O=C(Nc1cccc(-c2nn3ccccc3c2-c2ccnc(Nc3cccc(C(F)(F)F)c3)n2)c1)c1c(F)cccc1F
MET

What about COc1cccc(C2=C(Nc3ccc(Cl)c(C(=O)O)c3)C(=O)NC2=O)c1 ?
NOT MET

Proceed to Nc1ncc(-c2ccc3nccc(-c4ccncc4)c3c2)cc1S(=O)(=O)N1CCOCC1
MET

And Nc1n[nH]c2cnc(-c3ccccc3)cc12 ?
NOT MET

Please answer likewise for Cc1ccc(F)c(C(=O)Nc2cccc(-c3nn4ccccc4c3-c3ccnc(Nc4cccc(F)c4)n3)c2)c1F
NOT MET

Request: Nc1ncnc2c1nc(-c1ccccc1)n2-c1ccccc1
NOT MET

And what about the compound C[C@@H]1CC[C@@H](C(=O)Nc2ccccc2)CN1c1cc(-c2ccc3c(N)n[nH]c3c2)nc(N)n1 ?
NOT MET

Cc1occc1-c1ncc(OC[C@@H](N)Cc2c[nH]c3ccccc23)cc1-c1ccc2[nH]nc(C)c2c1.O=C(O)C(F)(F)F , same question.
NOT MET

What do we get for Fc1ccc(-c2ncn(C3CCNCC3)c2-c2ccnc(Oc3ccc(-c4ccccc4)cc3)n2)cc1 ?
MET

Quick one: CN1CCN(Cc2cccc(-c3ccc4c(Nc5ccc(Oc6ccccc6)cc5)ccnc4c3)c2)CC1
NOT MET

---

# Tested on: ABL1-nonphosphorylated
# settings: concentration: 1 μM, replicates: in singlicate; n = 1
Give %Inh for every item shown.
# output: bare number, implied unit %

Would you mind telling me what %Inh value was observed for c1ccc(-c2cnc3nccnn23)cc1 [AH20685] ?
0

Let us now turn to COCCOCCOc1cc2ncc3c4ccc(C#N)cc4[nH]c3c2cc1OC
70

Now try c1ccc(-c2n[nH]cc2Nc2ccnc3ccccc23)nc1 [GW694077] .
0

Record: CCCCc1nn2ncccc2c1-c1ccnc(Nc2ccc(N3CCN(C)CC3)cc2)n1 [GW684941]
95.8

Now the same for COc1ccc(-c2coc3ccc(-c4nnc(SCc5ccc(OC)c(C(F)(F)F)c5)o4)cc23)cc1
13

Let us now turn to C[C@@H]1CC[C@@H](C(=O)Nc2ccccc2)CN1c1cc(-c2ccc3c(N)n[nH]c3c2)nc(N)n1 [GSK2286062]
0

Please answer likewise for Nc1ncnc2c1nc(-c1ccccc1)n2-c1ccccc1 [SKF-97293]
8

Follow-up item: COc1cccc(C2=C(Nc3ccc(Cl)c(C(=O)O)c3)C(=O)NC2=O)c1 [SB-390769]
11

Here is the next molecule: c1ccc(Oc2ccc(Nc3ccnc4cc(-c5ccc(CNCCN6CCOCC6)o5)ccc34)cc2)nc1 [GW567145]
78

Please answer likewise for Oc1cc(Nc2ccnc3cc(I)ccc23)ccc1F [GW552771]
99.1

Do the same for CN1CCN(CCCNc2nccc(-c3c(-c4ccc(F)cc4)nn4cc(C(F)(F)F)ccc34)n2)CC1 [GW621581] please
0

---

For each of the compounds below, state its %Inh.
# Tested on: CSNK1G3
# settings: concentration: 1 μM, replicates: in singlicate; n = 1
# number only, unit % dropped from output

Bench note: what %Inh did CC(C)(C)c1ccc2nccc(Nc3cccc(O)c3)c2c1 [GW856795] show?
0

Item: Cl.Cl.NCC(C(=O)Nc1cc(Br)c(-c2ccnc3[nH]ccc23)s1)c1ccccc1 (centres unmarked) [GSK1269851]
35

Please answer likewise for Cc1cccc(Nc2nc(N[C@H]3CCNC3)ncc2C(N)=O)c1.Cl [GSK2197149]
15

Another compound: CC(=O)N1CCN(c2ccc(Nc3nccc(-c4sc(C(C)C)nc4-c4cccc(NS(=O)(=O)c5cccc(Cl)c5)c4)n3)cn2)CC1 [GSK1660437]
10

Next: c1ccc(Oc2ccc(Nc3ccnc4cc(-c5ccc(CNCCN6CCOCC6)o5)ccc34)cc2)nc1 [GW567145]
13

Ok, now COc1cc(Nc2nccc(N3CCC(NC(=O)Nc4cccc(C(C)=O)c4)C3)n2)cc(OC)c1OC (centres unmarked) [GSK1379753]
21

Would you kindly repeat that for Cn1cc(-c2ccc3c(c2)CCN3C(=O)Cc2cccc(Cl)c2)c2c(N)ncnc21 [GSK2606590] ?
29

Please answer likewise for COc1cccc(C2=C(Nc3ccc(Cl)c(C(=O)O)c3)C(=O)NC2=O)c1 [SB-390769]
0

Now consider CN(C)Cc1ccc(-c2ccc3c(Nc4ccc(Oc5ccccn5)cc4)ccnc3c2)o1 [GW567148] and answer again.
0

Same question for COc1cc2c(cc1OCCN1CCNCC1)ncc1c3ccc(C#N)cc3[nH]c21 please.
4

// same read-out, input: FC(F)(F)c1ccc(/C=C/c2cncnc2Nc2ccc3[nH]c(Cc4ccccc4)nc3c2)cc1 [GW709199]
4

Same read-out for Nc1ncnc2c1nc(-c1ccccc1)n2-c1ccccc1 [SKF-97293] ?
7

Here is the next compound: COc1ccc(-c2coc3ccc(-c4nnc(SCc5ccc(OC)c(C(F)(F)F)c5)o4)cc23)cc1
0

Now consider O=C(Nc1cccc(-c2nn3ccccc3c2-c2ccnc(Nc3cccc(C(F)(F)F)c3)n2)c1)c1c(F)cccc1F [GSK292658] .
8

And the next one, CN1CCN(Cc2cccc(-c3ccc4c(Nc5ccc(Oc6ccccc6)cc5)ccnc4c3)c2)CC1 [GW578342] ?
2

Ok, now COc1cc(Nc2nccc(N3CCC(NC(=O)c4cc5ccccc5s4)C3)n2)cc(OC)c1OC (centres unmarked) [GSK1379760]
8

Check COCCOCCOc1cc2ncc3c4ccc(C#N)cc4[nH]c3c2cc1OC too.
17

---

Task for the reader: assign each of the following molecules its reported %Inh.
# Test system: ROS1
# settings: concentration: 1 μM, replicates: in singlicate; n = 1
Entry rule: numbers only, all in %.

Reported %Inh for ROS1, given Cc1cccc(Nc2nc(N[C@H]3CCNC3)ncc2C(N)=O)c1.Cl [GSK2197149] ?
32

Please give the result for NCCCC(NC(=O)c1cc(Br)c(-c2ccnc3[nH]ccc23)s1)c1ccccc1.O=C(O)C(F)(F)F.O=C(O)C(F)(F)F (centres unmarked) [GSK1287544] too.
10

Another molecule to look at: COc1cccc(C(=O)Nc2cccc(Oc3ccc4nc(NC(=O)C5CC5)cn4n3)c2)c1
0

Repeat with Nc1ncc(-c2cccnc2)c2scc(-c3ccc4c(c3)CCN4C(=O)Cc3ccccc3)c12 [GSK683281]
27

Then what about the molecule Clc1ccc(-c2nn3ncccc3c2-c2ccnc(Nc3ccc4c(c3)OCCO4)n2)cc1 [GW829116] ?
0

Moving on to the next molecule: O=C(Nc1cccc(-c2nn3ccccc3c2-c2ccnc(Nc3cccc(C(F)(F)F)c3)n2)c1)c1c(F)cccc1F [GSK292658]
0

Please answer likewise for O=C(Nc1n[nH]c2nc(-c3ccc(O)cc3)ccc12)C1CC1 [SB-710363]
0

// same read-out, input: CCCCc1nn2ncccc2c1-c1ccnc(Nc2ccc(N3CCN(C)CC3)cc2)n1 [GW684941]
71
